Target: human FGFR-3 (Homo sapiens (Human))
Test: FGFR-3 kinase assay (TR-FRET)
Type: biochemical
Details: 10 μM ATP; 15 min pre-incubation with enzyme; compounds of the invention
Structures can show the parent of a compound that is named as a salt.
metric: log10 of IC50 (log10 of the value in nM)
Scale: decimal log of IC50, IC50 in nM.

For "CCOCc1c(-c2cc3cc(C)cc(OC)c3s2)c2c(N)ncnn2c1CN1CCN(C(C)=O)CC1" the compound record lists log10 of IC50 as 1.42

Kindly note the recorded log10 of IC50 for "COc1cc(C)cc2cc(-c3c(CN4CCNC(=O)C4)c(CN4CCN(C=O)CC4)n4ncnc(N)c34)sc12" , which is 0.99

Form: compound = COc1cc(C)cc2cc(-c3c(CN4CCC(O)CC4)c(CN4CCNCC4)n4ncnc(N)c34)sc12 [Example 41, trihydrochloride] ; log10 of IC50 = 0.86

----------
Target: human FGFR-1 (Homo sapiens, UniProt P11362)
Sequence (P11362 22-822 limits assumed): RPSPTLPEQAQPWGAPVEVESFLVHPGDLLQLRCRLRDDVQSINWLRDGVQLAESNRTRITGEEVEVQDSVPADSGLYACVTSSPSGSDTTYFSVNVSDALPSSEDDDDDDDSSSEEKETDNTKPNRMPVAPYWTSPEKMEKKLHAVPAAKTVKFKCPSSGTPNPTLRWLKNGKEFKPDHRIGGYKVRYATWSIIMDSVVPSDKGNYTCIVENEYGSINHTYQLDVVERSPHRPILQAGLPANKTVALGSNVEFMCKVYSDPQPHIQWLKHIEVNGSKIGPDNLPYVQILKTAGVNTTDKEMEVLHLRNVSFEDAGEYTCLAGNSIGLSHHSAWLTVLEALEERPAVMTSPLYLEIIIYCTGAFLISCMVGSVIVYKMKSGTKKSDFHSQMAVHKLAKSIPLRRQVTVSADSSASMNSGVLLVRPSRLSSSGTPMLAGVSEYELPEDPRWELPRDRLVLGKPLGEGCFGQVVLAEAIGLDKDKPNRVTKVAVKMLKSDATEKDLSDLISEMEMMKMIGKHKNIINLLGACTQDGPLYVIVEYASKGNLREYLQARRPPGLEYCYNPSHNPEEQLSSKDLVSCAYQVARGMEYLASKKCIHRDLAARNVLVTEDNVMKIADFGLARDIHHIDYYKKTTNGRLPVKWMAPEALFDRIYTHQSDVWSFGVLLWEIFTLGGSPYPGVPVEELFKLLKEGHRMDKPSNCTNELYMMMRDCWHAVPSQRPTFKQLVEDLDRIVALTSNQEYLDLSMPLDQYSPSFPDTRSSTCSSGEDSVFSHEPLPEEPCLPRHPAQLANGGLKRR
Experiment: FGFR-1 high ATP kinase assay (TR-FRET)
Type: biochemical
Conditions: 2 mM ATP; 15 min pre-incubation with enzyme; compounds of the invention
metric: IC50 (nM)
Express the result in nM but write the number alone.

{"molecule": "CCOCc1c(-c2cc3cc(C)cc(OC)c3s2)c2c(N)ncnn2c1CN1CCOCC1", "IC50 (nM)": 12.7}
{"molecule": "COc1cc(C)cc2cc(-c3c(CNCC(C)(C)O)c(Cl)n4ncnc(N)c34)sc12 [Example 82]", "IC50 (nM)": 3.4}
{"molecule": "COCCOCc1c(-c2cc3cc(C)cc(OC)c3s2)c2c(N)ncnn2c1CN1CCNCC1", "IC50 (nM)": 2.1}
{"molecule": "CCOCc1c(-c2cc3cc(C)cc(OC)c3s2)c2c(N)ncnn2c1CN1CCN(C2CC2)CC1", "IC50 (nM)": 54.5}

// "COCc1c(-c2cc3cc(C)cc(OC)c3s2)c2c(N)ncnn2c1CN1CCNCC1" : IC50 value = 0.9

Entry under test: "COc1cc(C)cc2cc(-c3c(CO)c(C#N)n4ncnc(N)c34)sc12" . Its IC50 was 27

Entry under test: "COc1cc(C)cc2cc(-c3c(CO)c(C)n4ncnc(N)c34)sc12" . Its IC50 was 4.1

----------
Measured IC50 accompanies every entry in the list below.
Target: human FGFR-3 (Homo sapiens (Human), UniProt P22607)
Sequence (P22607 397-806): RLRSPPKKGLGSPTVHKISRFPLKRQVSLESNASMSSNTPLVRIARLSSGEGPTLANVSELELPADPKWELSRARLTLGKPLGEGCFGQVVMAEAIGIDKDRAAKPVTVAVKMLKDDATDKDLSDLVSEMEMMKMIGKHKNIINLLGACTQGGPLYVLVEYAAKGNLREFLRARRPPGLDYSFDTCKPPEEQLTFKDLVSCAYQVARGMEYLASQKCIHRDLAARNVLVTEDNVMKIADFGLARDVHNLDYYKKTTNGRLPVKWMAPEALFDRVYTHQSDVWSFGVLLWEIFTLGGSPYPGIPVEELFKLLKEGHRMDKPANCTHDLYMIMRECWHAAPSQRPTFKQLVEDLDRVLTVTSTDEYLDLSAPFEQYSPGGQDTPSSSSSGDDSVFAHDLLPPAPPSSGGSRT
Assay: FGFR-3 kinase assay (TR-FRET)
Type: biochemical
Conditions: 10 μM ATP; 15 min pre-incubation with enzyme; compounds of the invention
Only the number, expressed in nM, is required.

Some solved entries appear below for comparison.
{"compound": "CCOCc1c(-c2cc3cc(C)cc(OC)c3s2)c2c(N)ncnn2c1C(=O)N(C)C", "result": 9.6}
{"compound": "CCOCc1c(-c2cc3cc(C)cc(OC)c3s2)c2c(N)ncnn2c1CN1CCNC(=O)C1(C)C", "result": 28.7}
{"compound": "COc1cc(C)cc2cc(-c3c(CN4CCNC(=O)C4)c(CN4CCN(C(C)=O)CC4)n4ncnc(N)c34)sc12", "result": 6.8}
{"compound": "COc1cc(C)cc2cc(-c3c(CO)c(C)n4ncnc(N)c34)sc12", "result": 19.8}
{"compound": "CCOCc1c(-c2cc3cc(C)cc(OC)c3s2)c2c(N)ncnn2c1CN1CC[C@](C)(N)C1", "result": 1}

Recorded IC50 (compound "CCOCc1c(-c2cc3cc(C)cc(OC)c3s2)c2c(N)ncnn2c1C(=O)N[C@@H]1CCNC1=O" ): 7.1

In plain terms, COc1cc(C)cc2cc(-c3c(CNCC(C)(C)O)c(Cl)n4ncnc(N)c34)sc12 [Example 81] has a documented IC50 of 0.5

Short answer for "COc1cc(C)cc2cc(-c3c(COC4CCC4)c(CN4CCNCC4)n4ncnc(N)c34)sc12" : IC50 was 4.9

Quick note, IC50 for CCOCc1c(-c2cc3cc(C)cc(OC)c3s2)c2c(N)ncnn2c1C(C)O (stereo not shown) landed at 11

----------
Examples of compounds with documented IC50 follow.
Biological target: human FGFR-3 (Homo sapiens (Human))
Experiment: FGFR-3 kinase assay (TR-FRET)
Assay type: biochemical
Details: 10 μM ATP; 15 min pre-incubation with enzyme; compounds of the invention
# output: bare number, implied unit nM

The cases that follow already have their IC50 on record.
{"compound": "CCOCc1c(-c2cc3cc(C)cc(OC)c3s2)c2c(N)ncnn2c1C(=O)N1CNC(=O)C1 [Example 117]", "unit_abbrev": "nM", "IC50": 5.3}
{"compound": "CCOCc1c(-c2cc3cc(C)cc(OC)c3s2)c2c(N)ncnn2c1C(=O)N1CCNC(=O)C1 [Example 107]", "unit_abbrev": "nM", "IC50": 17.4}
{"compound": "COc1cc(C)cc2cc(-c3c(CO)c(C#N)n4ncnc(N)c34)sc12 [Example 68]", "unit_abbrev": "nM", "IC50": 42.7}
{"compound": "COc1cc(C)cc2cc(-c3c(CO)c(Cl)n4ncnc(N)c34)sc12 [Example 79]", "unit_abbrev": "nM", "IC50": 17.9}
{"compound": "COc1cc(C)cc2cc(-c3c(COCC4CC4)c(CN4CCNCC4)n4ncnc(N)c34)sc12 [Example 25]", "unit_abbrev": "nM", "IC50": 5.2}

The compound listed as COc1cc(C)cc2cc(-c3c(CO)c(C(C)(C)O)n4ncnc(N)c34)sc12 [Example 73] shows IC50 equal to 12.2

The compound listed as COc1cc(C)cc2cc(-c3c(COCCO)c(CN4CCNC(=O)C4)n4ncnc(N)c34)sc12 [Example 21] has a reported IC50 of 13

----------
Target: human FGFR-3 (Homo sapiens (Human), UniProt P22607)
Assay: FGFR-3 kinase assay (TR-FRET)
Assay type: biochemical
Settings: 10 μM ATP; 15 min pre-incubation with enzyme; compounds of the invention
Structures can show the parent of a compound that is named as a salt.
Each entry below lists one item and its recorded IC50 value.
Give the number; nM is assumed, so skip it.

Worked cases, IC50 given:
{"compound": "COCCOCc1c(-c2cc3cc(C)cc(OC)c3s2)c2c(N)ncnn2c1CN1CCNCC1 [Example 28]", "unit_abbrev": "nM", "IC50": 9.7}
{"compound": "COc1cc(C)cc2cc(-c3c(CNC(C)=O)c(CN4CCN(C(C)=O)CC4)n4ncnc(N)c34)sc12 [Example 66]", "unit_abbrev": "nM", "IC50": 3.7}
{"compound": "COc1cc(C)cc2cc(-c3c(CN[C@@H]4CCNC4=O)c(CN4CCN(C(C)=O)CC4)n4ncnc(N)c34)sc12 [Example 56]", "unit_abbrev": "nM", "IC50": 2}
{"compound": "CCOCc1c(-c2cc3cc(C)cc(OC)c3s2)c2c(N)ncnn2c1C(=O)N1CCC(O)CC1 [Example 121]", "unit_abbrev": "nM", "IC50": 24.6}
{"compound": "COc1cc(C)cc2cc(-c3c(CN4CCNC(=O)C4)c(C)n4ncnc(N)c34)sc12 [Example 76]", "unit_abbrev": "nM", "IC50": 1.4}

COc1cc(C)cc2cc(-c3c(CNCC(C)(C)O)c(C)n4ncnc(N)c34)sc12 [Example 78] yielded IC50 of 2

// COc1cc(C)cc2cc(-c3c(CNC4CCC4)c(CN4CCNCC4)n4ncnc(N)c34)sc12 [Example 44, trihydrochloride] : IC50 value = 6.1

Short answer for COc1cc(C)cc2cc(-c3c(CNCC(C)O)c(CN4CCOCC4)n4ncnc(N)c34)sc12 (racemic) [Example 53] : IC50 was 2.5

# compound COc1cc(C)cc2cc(-c3c(CNCC(=O)O)c(CN4CCNCC4)n4ncnc(N)c34)sc12 [Example 48, trihydrochloride] ; its IC50 = 45.4

Sure, the documented IC50 for COc1cc(C)cc2cc(-c3c(CNCC(C)(C)O)c(CN4CCOCC4)n4ncnc(N)c34)sc12 [Example 54] is 6.8

Summary for this compound, CCOCc1c(-c2cc3cc(C)cc(OC)c3s2)c2c(N)ncnn2c1C(O)C1CC1 (stereo not drawn) [Example 91] : IC50 is 31.1

Measured IC50 of COc1cc(C)cc2cc(-c3c(COCC(N)=O)c(CN4CCN(C(C)=O)CC4)n4ncnc(N)c34)sc12 [Example 34] : 10.5
